# Protocol Text: Absorption spectrum in chloroform (maximum absorption wavelength, gram absorption coefficient, 550/525 nm coefficient ratio)
# Assay type: physicochemical
# Test Conditions: chloroform solution
Result Type: λmax (nm)
Quick reminder: number only, in nm, skip the unit.

Worked set:
Field λmax (entry CCCCCCCCCCOc1ccc(C2=c3nc(c4c5cccc6cccc(c3=4)c65)C(c3ccc(OCCCCCCCCCC)cc3)=c3c4c(c5[n]3[Cu][n]3c2c2c(c3C(c3ccc(OCCCCCCCCCC)cc3)=c3nc(c6c7cccc8cccc(c3=6)c87)C=5c3ccc(OCCCCCCCCCC)cc3)-c3cccc5cccc-2c35)-c2cccc3cccc-4c23)cc1 ) reads 552

Field λmax (entry CCCCCCCCCCOc1ccc(C2=c3nc(c4c5cccc6cccc(c3=4)c65)C(c3ccc(OCCCCCCCCCC)cc3)=c3c4c(c5[n]3[Ni][n]3c2c2c(c3C(c3ccc(OCCCCCCCCCC)cc3)=c3nc(c6c7cccc8cccc(c3=6)c87)C=5c3ccc(OCCCCCCCCCC)cc3)-c3cccc5cccc-2c35)-c2cccc3cccc-4c23)cc1 ) reads 536

More entries:
Field λmax (entry CCCCCCOc1ccc(C2=c3nc(c4c5cccc6cccc(c3=4)c65)C(c3ccc(OCCCCCC)cc3)=c3c4c(c5[n]3[Cu][n]3c2c2c(c3C(c3ccc(OCCCCCC)cc3)=c3nc(c6c7cccc8cccc(c3=6)c87)C=5c3ccc(OCCCCCC)cc3)-c3cccc5cccc-2c35)-c2cccc3cccc-4c23)cc1 ) reads 553
